Test system: HCT-116 colon
Test: NCI-60 one-dose screen, 48 h
Settings: 10 µM unless noted
About 83,000 compounds went through this panel and 20% of them were active in at least one assay; those are over-represented in the sample as a whole. Activity calls are given as the source filed them. The calls were made as follows: active = growth percent below 10; inactive = the rest.
Choose one outcome from this list and give only that: T = active, F = inactive

Answered cases to consult:
- molecule_smiles: "COc1ccc(-c2n/c(=C\\c3c(O)[nH]c4ccc(OC)cc34)cc3c2=Nc2ccccc2-3)cc1"
  target_system: "HCT-116 colon"
  label_class: "T"
- molecule_smiles: "Cn1cnc2c1c(=O)n(CCC(=O)Nc1ccc(F)cc1)c(=O)n2C"
  target_system: "HCT-116 colon"
  label_class: "F"
- molecule_smiles: "N#Cc1c(-c2ccc(O)cc2)c2c(N)nn(-c3ccccc3)c2[nH]c1=O"
  target_system: "HCT-116 colon"
  label_class: "F"

Now, please, on to the next compound.
(Q) I'd appreciate the recorded outcome for CC1(C)CC[C@]2(C(=O)Nc3ccccn3)CC[C@]3(C)C(=CC[C@@H]4[C@@]5(C)C/C(=C/c6ccncc6)C(=O)C(C)(C)[C@@H]5CC[C@]43C)[C@@H]2C1 from this test.
(A) T

====

System: CAKI-1 renal
Assay: NCI-60 one-dose screen, 48 h (100 = growth as untreated, 0 = no growth, -100 = all killed)
Conditions: 10 µM unless noted
This is part of a sample that, as a whole, favours compounds with a hit. Of some 83,000 tested, about 20% had one in any assay.
Is growth at least 60%? Then Condition met. If not, Condition not met.

- molecule_smiles: "O=c1c(CNc2ccc(S(=O)(=O)Nc3nccs3)cc2)coc2ccccc12"
  target_system: "CAKI-1 renal"
  label_class: "Condition met"
- molecule_smiles: "Nc1c(C(=O)Nc2cccc(Br)c2)sc2nc3c(cc12)C(=O)CCC3"
  target_system: "CAKI-1 renal"
  label_class: "Condition met"
- molecule_smiles: "Cc1cc(C)c(NC(=O)c2sc3nc4c(cc3c2N)CCCC4)c(C)c1"
  target_system: "CAKI-1 renal"
  label_class: "Condition not met"

We next turn to a different molecule, shown below.
(Q) Would you say Cc1csc(Nc2nc(-c3ccc(Cl)cc3)nc(C(Cl)(Cl)Cl)n2)n1 shows growth at minimum 60%?
(A) Condition met

====

Test system: MCF7 breast
Experiment: NCI-60 one-dose screen, 48 h
Conditions: 10 µM unless noted
About 83,000 compounds went through this panel and 20% of them were active in at least one assay; those are over-represented in the sample as a whole. Activity calls are given as the source filed them. How the source made its calls: active means growth percent below 10; inactive means the rest.
Outcomes you can answer with include only these: active, inactive

Example results:
- compound: "Cn1cc(-c2csc(-c3cn(CCN)c4ccccc34)n2)c2cccnc21"
  label_class: "inactive"
- compound: "C[C@H]1[C@H]2C3=CC[C@@H]4[C@@]5(C)C/C(=C/c6ccco6)C(=O)C(C)(C)[C@@H]5CC[C@@]4(C)[C@]3(C)CC[C@@]2(C(=O)N2CCOCC2)CC[C@@H]1C"
  label_class: "inactive"
- compound: "CC1(C)C(=O)/C(=C\\c2ccccn2)C[C@]2(C)[C@H]3CC[C@@H]4[C@@H](C(=O)/C=C/c5ccccn5)CC[C@@]4(C)[C@]3(C)CC[C@@H]12"
  label_class: "inactive"
- compound: "CC1(C)C=CC[C@]2(C)[C@H]3CC[C@@H]4[C@H]5[C@H](C(=O)/C=C/c6cccnc6)CC[C@]5(CO)CC[C@@]4(C)[C@]3(C)CC[C@@H]12"
  label_class: "active"
- compound: "Cc1cc(C)n(Cc2cc(C(C)(C)C)cc(C(C)(C)C)c2)c(=O)c1C#N"
  label_class: "inactive"
- compound: "CC(c1ccccc1)N1C(=O)C(C2SC(=S)N(C(C)c3ccccc3)C2=O)SC1=S (stereo not drawn)"
  label_class: "inactive"

(Q) Kindly provide the recorded test outcome for the following compound: Cc1cc(Cl)c2c(N(C)C)cccc2n1
(A) inactive

(Q) Lookup OCC1OC(n2cnc3c(Cl)ncnc32)CC1O (stereo not drawn)
(A) inactive

(Q) // repeat for O=C(Nc1ccc(/C=C2\SC(=O)N(Cc3ccc(OC(F)(F)F)cc3)C2=O)cc1)c1ccc(Cl)c([N+](=O)[O-])c1 and report
(A) active

(Q) Further, for C/C(=N\NC(=O)C(C)SC(C)C(=O)N/N=C(\C)c1cccnc1)c1cccnc1 (stereo not drawn) ?
(A) inactive
